Study target: Rhesus/Macaque TNF (Rhesus/Macaque, UniProt P48094 77-233)
Sequence (P48094 77-233 limits assumed): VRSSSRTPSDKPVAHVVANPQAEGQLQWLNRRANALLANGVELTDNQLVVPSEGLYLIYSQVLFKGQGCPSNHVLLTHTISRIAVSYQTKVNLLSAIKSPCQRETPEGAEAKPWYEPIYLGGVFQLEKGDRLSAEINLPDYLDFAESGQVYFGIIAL
Test method notes: cell-based or functional assay
// reported rhesus TNF neutralization IC50 for each item listed
Experimental endpoint: rhesus TNF neutralization IC50 (nM)

| Binder | Data value |
| --- | --- |
| AE11-5 AM3 (antibody, V domains shown, Full length IgG converted from scFv clone J703M1S3#26; Human IgG1 (hCg1,z,non-a,mut(234,235)) with human kappa; also called J703M1S3#26) VH: EVQLVQSGAEVKKPGSSVKVSCKASGGTFSWYAISWVRQAPGQGLEWMGGITPILGTANYAQKFQGRVTITADESTSTVYMELSSLRSEDTAVYYCARGVYYDPKRADYWGQGTLVTVSS VL: EIVLTQSPDFQSVTPKEKVTITCRASQSIGSRLHWYQQKPDQSPKLLIKHASQSTSGVPSRFSGSGSGTDFTLTINSLEAEDAATYYCHQSGSSPPRTFGQGTKVEIK | 0.165 |
| AE11-5 AM9 (antibody, V domains shown, Full length IgG converted from scFv clone J703M1S3#69; Human IgG1 (hCg1,z,non-a,mut(234,235)) with human kappa; also called J703M1S3#69) VH: EVQLVQSGAEVKKPGSSVKVSCKASGGTFSWYAISWVRQAPGQGLEWMGGITPILGSPIYAQKFQGRVTITADESTSTVYMELSSLRSEDTAVYYCARGIYYDPKRADYWGQGTLVTVSS VL: EIVLTQSPDFQSVTPKEKVTITCRASQSIGSSLHWYQQKPDQSPKLLIKHVSQSLSGVPSRFSGSGSGTDFTLTINSLEAEDAATYYCHQRSSSPSPTFGQGTKVEIK | 0.123 |
| AE11-5 AM2 (antibody, V domains shown, Full length IgG converted from scFv clone J703M1S3#13; Human IgG1 (hCg1,z,non-a,mut(234,235)) with human kappa; also called J703M1S3#13) VH: EVQLVQSGAEVKKPGSSVKVSCKASGGTFSWYAISWVRQAPGQGLEWMGGITPILGAANYAQKFQGRVTITADESTSTVYMELSSLRSEDTAVYYCARGVYYDPKRADYWGQGTLVTVSS VL: EIVLTQSPDFQSVTPKEKVTITCRASQSIGSTLHWYQQKPDQSPKLLIKHASQSNSGVPSRFSGSGSGTDFTLTINSLEAEDAATYYCHQSSSLPPPTFGQGTKVEI | 0.756 |

The origin of these recorded values is patent US20130164256A1.
